test: probe aWnt5a binding to arrayed compounds – biochemical, biotinylated probe, 635/667 nm fluorescence, primary screen (AID 1113); conditions: small-molecule microarray, higher = more signal;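 note: score merges 667 nm fluorescence intensity with signal-to-noise per printed feature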
# reported composite z-score; entries follow
Hey, just send me the number, nothing else.

Prompt line: Item `COc1ccc([Si](C)(C)[C@H]2[C@H](CCO)O[C@@]3(C(=O)N(Cc4ccccc4)c4ccc(N5C(=O)COc6ccccc65)cc43)[C@@H]2C)cc1` : provide composite z-score
Response line: -0.136

###

experiment: S6 kinase pathway phospho-S6 level changes – cell-based, A549, cytoblot, luminescence, serum-stimulated, primary screen (AID 1158); details: 5 h, higher = more signal;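 note: serum-stimulated A549 lung adenocarcinoma cells; signal is phosphorylated S6 detected by cytoblot immunostaining with HRP secondary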
# binarize z-score: threshold 1 inclusive, high side TRUE, low side FALSE

Before answering, review these 3 worked examples.
1) C=CC[C@@]1(C(=O)OC)N=C(c2ccc(OCCCO)cc2)O[C@@H]1c1ccccc1CN=[N+]=[N-]; TRUE
2) CN1C(=O)C2C(C1=O)C1C=C(c3ccc(CO)cc3)C2C(C2CC2)N1Cc1sc2ccccc2c1Cl (configuration not stated); FALSE
3) COc1ccc(C(=O)Nc2cccc(CN3C(=O)[C@@]4(O[C@@H](CC(=O)N5Cc6ccccc6C[C@H]5CO)[C@H]([Si](C)(C)c5ccc(OC)cc5)[C@H]4C)c4ccccc43)c2)cc1; TRUE

Prompt line: Textbook exercise: given the entry CC(C)(C)OC(=O)CC[C@@]1(C(=O)NCC(O)CO)N=C(c2ccc(OCCCO)cc2)O[C@@H]1c1ccccc1 (some centres not stated) , state whether its z-score is greater than or equal to 1.
Response line: FALSE

Prompt line: Textbook exercise: given the entry `COCCOC(=O)N1C(=O)[C@@]2(c3cc(C#CC4=CCCCC4)ccc31)[C@H](c1ccc(OCCO)cc1)N1[C@H](c3ccccc3)[C@H](c3ccccc3)OC(=O)[C@H]1[C@@H]2C(=O)Nc1nc2ccccc2s1` , state whether its z-score is greater than or equal to 1.
Response line: TRUE

Prompt line: Textbook exercise: given the entry `[N-]=[N+]=Nc1ccccc1C[C@]1(C(=O)N2CCCCC2)N=C(c2ccc(OCCCO)cc2)O[C@H]1c1ccccc1N=[N+]=[N-]` , state whether its z-score is greater than or equal to 1.
Response line: FALSE

Prompt line: Textbook exercise: given the entry CC(=O)n1cc(C(O)C2C=CC3C(=O)N(c4ccccc4)C(=O)C3N2Nc2ccc(C#N)cc2)c2ccccc21 (configuration not stated) , state whether its z-score is greater than or equal to 1.
Response line: FALSE

Prompt line: Textbook exercise: given the entry `C=CCN1Cc2ccccc2C[C@]2(N=C(c3ccc(OCCCO)cc3)O[C@@H]2c2ccccc2)C1=O` , state whether its z-score is greater than or equal to 1.
Response line: TRUE

Prompt line: Textbook exercise: given the entry `C=CCN1Cc2ccccc2C[C@@]2(COC(c3ccc(OCCCO)cc3)=N2)C1=O` , state whether its z-score is greater than or equal to 1.
Response line: FALSE

Prompt line: Textbook exercise: given the entry `COCCCNC(=O)[C@@]1(C)c2ccccc2C(=O)N(Cc2ccccc2)[C@H]1c1ccc(CO)cc1` , state whether its z-score is greater than or equal to 1.
Response line: TRUE

Prompt line: Textbook exercise: given the entry `COCCOC(=O)N1C(=O)[C@@]2(c3cc(C#CCC(C(=O)OC)C(=O)OC)ccc31)[C@H](c1ccc(OCCO)cc1)N1[C@H](c3ccccc3)[C@H](c3ccccc3)OC(=O)[C@H]1[C@@H]2C(=O)NC[C@H](O)c1ccccc1` , state whether its z-score is greater than or equal to 1.
Response line: FALSE

Prompt line: Textbook exercise: given the entry CC1CC/C=C\[C@H]2OC34C=CCN(c5ccc6ccccc6c5)C(=O)[C@H]3N(CCCCCO)C(=O)[C@@H]4C2C(=O)O1 (some centres not stated) , state whether its z-score is greater than or equal to 1.
Response line: FALSE
